MEASUREMENT PROTOCOL: Circular dichroism (CD) helicity of peptide in solution
Assay type: physicochemical
RUN PARAMETERS: 25° C.
Positions of bridges follow the written chain, without caps; N, C: chain ends. Non-standard residues stand in square brackets, D forms with d. Residues, ends and D or L forms follow the SMILES beside them. ξ: configuration not given here. dTrp(6-F) = N[C@H](Cc1c[nH]c2cc(F)ccc12)C(=O)O; ξPhe(4-CF3) = NC(Cc1ccc(C(F)(F)F)cc1)C(=O)O; S8 = C=CCCCCCC[C@](C)(N)C(=O)O; R5 = C=CCCC[C@@](C)(N)C(=O)O
REPORTED ENDPOINT: CD (% helicity)
I'd appreciate it if you included the unit after the number.

Worked cases, answers included:
compound=CC(C)C[C@H]1NC(=O)[C@@H](CCCCN)NC(=O)[C@@H](CCC(=O)O)NC(=O)[C@@H](Cc2ccc(C(F)(F)F)cc2)NC(=O)[C@@H](CC(N)=O)NC(=O)[C@]2(CCC/C=C\CCCCCC[C@](C)(C(N)=O)NC(=O)[C@@H](CC(C)C)NC1=O)CCC/C=C\CCC[C@@](C)(N)C(=O)N[C@H](C)C(=O)N[C@H](Cc1c[nH]c3cc(F)ccc13)C(=O)N[C@H](Cc1ccc(O)cc1)C(=O)N2 result=52.1%
compound="CC(C)C[C@@H](NC(=O)[C@@H](CC(C)C)NC(=O)[C@@]1(C)CCC/C=C\\CCCCCC[C@](C)(NC(=O)[C@H](N)[C@H](C)O)C(=O)N[C@H](Cc2c[nH]c3cc(F)ccc23)C(=O)N[C@H](Cc2ccc(O)cc2)C(=O)N[C@H](C)C(=O)N[C@H](CC(N)=O)C(=O)NC(Cc2ccc(C(F)(F)F)cc2)C(=O)N[C@H](CCC(=O)O)C(=O)N1)C(=O)N[C@H](CCCNC(=N)N)C(N)=O (stereo partly drawn) [^DPMI-(2-9)] (H-[dT][S8][dTrp(6-F)][dY][dA][dN][ξPhe(4-CF3)][dE][R5][dL][dL][dR]-NH2; staple (Z) 2-9)" result=26.5%
compound=CC(C)C[C@@H](NC(=O)[C@@H](CC(C)C)NC(=O)[C@@H](CCCCN)NC(=O)[C@@H](CCC(=O)O)NC(=O)[C@@H](Cc1ccc(C(F)(F)F)cc1)NC(=O)[C@@H](CC(N)=O)NC(=O)[C@@]1(C)CCCCCC/C=C\CCC[C@@](C)(N)C(=O)N[C@H](C)C(=O)N[C@H](Cc2c[nH]c3cc(F)ccc23)C(=O)N[C@H](Cc2ccc(O)cc2)C(=O)N1)C(=O)N[C@H](CCCNC(=N)N)C(N)=O result=24.7%

Endpoint output: CD (% helicity) of `CC(C)C[C@@H](NC(=O)[C@@]1(C)CCC/C=C\CCC[C@@](C)(NC(=O)[C@@H](C)NC(=O)[C@@H](Cc2ccc(O)cc2)NC(=O)[C@@H](Cc2c[nH]c3cc(F)ccc23)NC(=O)[C@@H](C)NC(=O)[C@H](N)[C@H](C)O)C(=O)N[C@H](Cc2ccc(C(F)(F)F)cc2)C(=O)N[C@H](CCC(=O)O)C(=O)N[C@H](CCCCN)C(=O)N1)C(=O)N[C@H](CCCNC(=N)N)C(N)=O` . Value?
39.9%
